molecular target: Protein kinase C beta type (Homo sapiens); note: in the data inactive means no Kd found up to 30 µM
Sequence (P05771 whole entry): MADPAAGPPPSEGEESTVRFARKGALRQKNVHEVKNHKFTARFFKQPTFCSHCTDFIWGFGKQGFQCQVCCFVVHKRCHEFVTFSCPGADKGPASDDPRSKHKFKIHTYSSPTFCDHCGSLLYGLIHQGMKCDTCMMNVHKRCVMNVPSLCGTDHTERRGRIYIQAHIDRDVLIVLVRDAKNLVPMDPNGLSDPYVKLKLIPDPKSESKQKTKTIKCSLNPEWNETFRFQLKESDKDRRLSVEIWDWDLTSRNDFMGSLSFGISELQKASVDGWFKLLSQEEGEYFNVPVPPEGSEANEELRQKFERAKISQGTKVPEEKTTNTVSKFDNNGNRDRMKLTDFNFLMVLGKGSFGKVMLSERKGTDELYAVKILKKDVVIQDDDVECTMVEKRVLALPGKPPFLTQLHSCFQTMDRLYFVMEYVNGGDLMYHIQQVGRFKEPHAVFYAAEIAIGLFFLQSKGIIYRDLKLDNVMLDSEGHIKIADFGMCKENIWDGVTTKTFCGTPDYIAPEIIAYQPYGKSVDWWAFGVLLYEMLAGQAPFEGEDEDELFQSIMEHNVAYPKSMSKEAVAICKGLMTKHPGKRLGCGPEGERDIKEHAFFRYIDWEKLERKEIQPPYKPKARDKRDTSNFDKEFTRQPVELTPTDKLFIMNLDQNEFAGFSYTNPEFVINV
Calls of active or inactive are those of the source.
Parameter call: string, one of active, inactive

>  <compound>
Cc1cc([C@@H](C)Nc2ccccc2C(=O)O)c2nc(N3CCOCC3)cc(=O)n2c1

>  <label-class>
inactive

$$$$
>  <compound>
O=C(c1ccc(F)c(F)c1Nc1ccc(I)cc1F)N1CC(O)([C@@H]2CCCCN2)C1

>  <label-class>
inactive

$$$$
>  <compound>
Nc1nc(N)c2nc(-c3cccc(O)c3)c(-c3cccc(O)c3)nc2n1

>  <label-class>
inactive

$$$$
>  <compound>
Cc1cn(-c2cc(NC(=O)c3ccc(C)c(Nc4nccc(-c5cccnc5)n4)c3)cc(C(F)(F)F)c2)cn1

>  <label-class>
inactive

$$$$
>  <compound>
CNC(=O)c1cc(Oc2ccc(NC(=O)Nc3ccc(Cl)c(C(F)(F)F)c3)c(F)c2)ccn1

>  <label-class>
inactive

$$$$

Returns: the outcome recorded for `C[C@@H](c1ccc2nccn2c1)n1nnc2ncc(-c3cnn(C)c3)nc21` in this assay.
inactive

Returns: the outcome recorded for `Cn1cc(-c2ccc(F)c(C(F)(F)F)c2)nc1C1CCN(c2ncnc3[nH]ncc23)CC1` in this assay.
inactive

Sourced from ChEMBL document CHEMBL3991601
